These measurements were taken from ChEMBL document CHEMBL1158143.

system: MCF7; assay: Cytotoxicity against human MCF7 cells after 24 hrs by MTT assay; assay type: functional, cell-based; settings: MCF7, 24 h
Value type: pIC50
In plain terms, pIC50 is the concentration in mol/L turned into minus its base-10 logarithm.

Example compounds with recorded pIC50:
Compound	pIC50
C=C1C(=O)O[C@H]2[C@@H](OC(C)=O)[C@@H]1[C@H](OC(=O)C(C)(C)O)[C@H](C(=C)C=O)[C@@]2(C)[C@@H]1CO1 (relative stereo)	6.28
C=C[C@@]1(C)[C@H]2OC(=O)C(=C)[C@H]([C@@H]2OC(C)=O)[C@H](OC(=O)C(C)(O)CC)[C@@H]1C(=C)C=O (relative stereo) [ZINAGRANDINOLIDE B]	6.42
C=C1C(=O)O[C@H]2[C@@H](OC(C)=O)[C@@H]1[C@H](OC(=O)C(C)(O)CC)[C@H](C(=C)C=O)[C@@]2(C)[C@@H]1CO1 (relative stereo) [ZINAGRANDINOLIDE A]	6.29

Tell me its pIC50 given C=C[C@@]1(C)[C@H]2OC(=O)C(=C)[C@H]([C@@H]2OC(C)=O)[C@H](OC(=O)C(C)(C)O)[C@@H]1C(=C)C=O (relative stereo) [ZINAGRANDINOLIDE C] as the entry.
6.26
